Tested on: MRSA 31 high-resist. (IPM resist.)
protocol: antibacterial activity (MIC), standard in vitro dilution test
Type: cell-based, Staphylococcus aureus
measurement-parameters: Staphylococcus aureus, MRSA, test bacterium strain 10^5 cfu/ml; read-out: MIC, MRSA 31 high-resist. (IPM resist.)
MIC for assorted compounds
Quick reminder: number only, in µg/mL, skip the unit.

compound	assayed-target	unit-annotation	MIC
CC[C@H](O)[C@@H]1C(=O)N2C(C(=O)O)=C(SCc3nc4ccccc4[nH]3)SC12 (stereo partly shown)	MRSA 31 high-resist. (IPM resist.)	µg/mL	3.13
CC[C@H](O)[C@@H]1C(=O)N2C(C(=O)O)=C(S[C@H]3CCN(C(=N)Nc4ccccc4)C3)S[C@H]12	MRSA 31 high-resist. (IPM resist.)	µg/mL	6.25
CC[C@H](O)[C@@H]1C(=O)N2C(C(=O)O)=C(Sc3ccccc3)S[C@H]12	MRSA 31 high-resist. (IPM resist.)	µg/mL	6.25
CC[C@H](O)[C@@H]1C(=O)N2C(C(=O)O)=C(SCCN)S[C@H]12	MRSA 31 high-resist. (IPM resist.)	µg/mL	6.25
CC[C@H](O)[C@@H]1C(=O)N2C(C(=O)O)=C(Sc3nc(-c4ccccc4)cs3)S[C@H]12	MRSA 31 high-resist. (IPM resist.)	µg/mL	3.13
CC[C@H](O)[C@@H]1C(=O)N2C(C(=O)O)=C(S[C@H]3CCN(c4ccccn4)C3)S[C@H]12	MRSA 31 high-resist. (IPM resist.)	µg/mL	3.13
CC[C@H](O)[C@@H]1C(=O)N2C(C(=O)O)=C(S[C@H]3CCN(c4ccc(NC(C)=N)cc4)C3)S[C@H]12	MRSA 31 high-resist. (IPM resist.)	µg/mL	3.13
CC[C@H](O)[C@@H]1C(=O)N2C(C(=O)O)=C(SC3CCN(C4CCCC4)C3)S[C@H]12 (stereo partly shown)	MRSA 31 high-resist. (IPM resist.)	µg/mL	6.25

Challenge: Sample CC[C@H](O)[C@@H]1C(=O)N2C(C(=O)O)=C(S[C@H]3CCN(CCOc4ccccc4)C3)S[C@H]12 — what was its MIC?
Response given: 6.25

Challenge: Param item = CC[C@H](O)[C@@H]1C(=O)N2C(C(=O)O)=C(S[C@H]3CCN(c4ccncc4)C3)S[C@H]12 ; retrieve measured MIC.
Response given: 3.13

---

Entries and their measured MIC, Escherichia coli NIHJ JC-2 strain follow.
System: Escherichia coli NIHJ JC-2 strain
protocol: antibacterial activity (MIC), standard in vitro dilution test
Format: cell-based
measurement-parameters: test bacterium strain 10^5 cfu/ml
Give the figure together with its unit, number first.

Previously resolved entries follow.
compound	MIC, Escherichia coli NIHJ JC-2 strain
C=CCN1CCC(SC2=C(C(=O)O)N3C(=O)[C@@H]([C@@H](O)CC)[C@H]3S2)C1 (stereo partly shown) [Ex. 17]	0.39 µg/mL
C=CCN1CCC(SC2=C(C(=O)O)N3C(=O)[C@@H]([C@@H](O)CC)[C@H]3S2)C1 (stereo partly shown) [Ex. 18]	0.39 µg/mL
CC[C@H](O)[C@@H]1C(=O)N2C(C(=O)O)=C(SC3CCc4cccnc43)S[C@H]12 (stereo partly shown) [Ex. 232]	12.5 µg/mL

Challenge: Recorded MIC, Escherichia coli NIHJ JC-2 strain of CC[C@H](O)[C@@H]1C(=O)N2C(C(=O)O)=C(SC3CCc4cccnc43)S[C@H]12 (stereo partly shown) [Ex. 231] , please.
Response given: 3.13 µg/mL
